The following compounds are shown together with reported melting point values.

Recorded results for 2 compounds are shown here.
Problem: Reported melting point for "CCOC(=O)C(=O)c1c[nH]c2c(CC)cccc12" : what is it?
Result: 152 to 154 °C

Problem: Input "CS(=O)(=O)c1ccc(-c2cnn(Cc3ccc(Cl)s3)c(=O)c2-c2ccc(F)cc2)cc1"
Result: 139 to 141 °C

---
Problem: Fill in: melting point of "CC1(C)CCCc2ccc(CC#Cc3ccc(C(=O)O)c(O)c3)cc21" is ___
Result: 185 to 187 °C

---

# melting point annotations

Worked cases, melting point given:
Problem: Requested field: melting point. Item: CC1CCCCN1CCNc1ccnc2cc(Cl)ccc12 (racemic)
Result: 133 to 134 °C

Problem: Also need O=C1N(Cc2ccc(C(F)(F)F)o2)c2cccc(-c3cncnc3)c2C12COc1cc3c(cc12)CCO3 (configuration not stated) , thanks.
Result: 263 to 266 °C

Problem: Same for "Cn1c(C(F)(F)F)nn(-c2cc(NS(C)(=O)=O)c(C#N)cc2F)c1=O"
Result: 67 °C

Problem: Same lookup for "O=[N+]([O-])c1ccc(F)cc1CO" , please.
Result: 82 to 86 °C

Problem: Repeat for the following molecule: O=C(CCn1ccnc1)N1c2ccccc2S(=O)c2ccc(Cl)cc21 (configuration not stated)
Result: 148 to 149 °C

Continuing:
Problem: Fill in: melting point of CC(Oc1cccc2c(Oc3ccc(C(F)(F)F)cc3F)cccc12)C(=O)O (configuration not stated) is ___
Result: 166 °C

Problem: Now try "CC#CN(NC(=O)c1ccc(Cl)c(S(N)(=O)=O)c1)c1ccccc1" .
Result: 168 to 170 °C

Problem: What do we get for "O=C(C=Cc1ccc(O)c(O)c1)C=Cc1ccc(O)c(O)c1" ?
Result: 221 to 223 °C

Problem: And "CCn1c(=O)c2c(N)n[nH]c2n(CC)c1=O" ?
Result: 246 to 248 °C

Problem: Try this molecule too: CC(=O)Nc1ccc(C(O)C2CCN(CCc3ccccc3)CC2)cc1 (configuration not stated)
Result: 173 to 174 °C

Problem: And "CC(C)(C)c1cc(C=C(C#N)C(N)=S)cc(C(C)(C)C)c1" ?
Result: 172 to 174 °C

Problem: What do you have for "O=C(COc1cc(=O)oc2ccccc12)c1ccccc1" ?
Result: 183 to 184 °C

Problem: Another molecule to look at: CN1C(=O)CC2(Cc3cc4ccccc4n3C2)C1=O (configuration not stated)
Result: 154 to 156 °C

Problem: Also need "CS(=O)(=O)N[C@@H]1CCCC[C@H]1Nc1nc(Nc2ccc3c(c2)CCC(F)(F)CC3)ncc1Cl" , thanks.
Result: 118 to 128 °C

Problem: Query "O=C(C=Cc1ccncc1)c1cccs1" next
Result: 150 to 152 °C

Problem: Param item: "Cc1nc2ccccc2n1Cc1ccc(C(=O)O)c2ccccc12"
Result: 292 to 293 °C

Problem: Also CC(=O)NCc1ccc2c(c1)CN(C1CCC(=O)NC1=O)C2=O (configuration not stated) ?
Result: 183 to 185 °C

---

METRIC NAME: melting point

Guide cases for melting point, answers given:
Problem: Need melting point, item "CCOC(=O)c1sc(S(C)(=O)=O)c2c1CCc1c(Br)nn(C)c1-2"
Result: 195 to 196 °C

Problem: Would you mind doing "CCCn1nc2c(N)nc3cnccc3c2c1CCNC(=O)c1ccc(F)cc1" as well?
Result: 317 to 318 °C

Problem: Same lookup for COc1cc(NC(=O)C#Cc2ccc(C(F)(F)F)cc2Cl)ccc1OCCN1CC(C)CC(C)C1 (centres undefined) , please.
Result: 196 to 201 °C

Problem: Input "Oc1ccc2oc(-c3ccc(F)cc3)nc2c1"
Result: 166 to 168 °C

Problem: Input "O=C(NC(=O)c1c(Cl)cccc1Cl)Nc1cc(-c2ccc(-c3ccccc3)cc2)on1"
Result: 225 to 227 °C

More entries:
Problem: Value lookup for melting point; key = "CS(=O)(=O)c1ccc(C(=O)c2ccc(Cl)cc2)cc1"
Result: 176 °C

Problem: Input Cc1ccccc1N1CCN(CC(O)COc2cccc3c2CCCC3=O)CC1 (centres undefined)
Result: 183 to 184 °C

Problem: What about "CC(C)CN1C(=O)c2cnc(-c3ccccc3)nc2Nc2ccccc21" ?
Result: 203 to 204 °C

Problem: # repeat for "CCOC(=O)CSc1nc(=O)[nH]cc1F"
Result: 156 °C

Problem: Next: COc1ccc(C2=NN(c3ccc(C(=O)Nc4ccc(C5=NNC(=O)CC5C)cc4)cc3)C(=O)C3CC=CCC23)cc1OC (centres undefined)
Result: 249 to 250 °C

---

METRIC NAME: melting point

Problem: May I ask what melting point has been recorded for CC1CC2C3CCC4=CC(=O)CCC4(C)C3=CCC2(C)C1(O)C(=O)CO (stereo unspecified) ?
Result: 167 to 168 °C

Problem: One more compound: CS(=O)(=O)Nc1ccc(/C=C\COCCCCCCNCC(O)c2cc(O)cc(O)c2)cc1 (stereo unspecified)
Result: 79 to 82 °C

More entries:
Problem: For the compound shown here, "CC1(C)CC2(CC(C)(C)N1O)OC1(CCCCCCCCCCC1)NC2=O" , give the reported melting point.
Result: 236 to 238 °C

Problem: Okay, and "COc1ccc(OC)c2c1C(=O)c1c(O)ccc(O)c1C2=O" ?
Result: 297 to 300 °C

Problem: Similarly, "COc1ccc2c(Cl)c(C(=O)Cl)sc2c1Cl" ?
Result: 174 to 175 °C

Problem: And then O=C1OC[C@H]2[C@@H]1N(Cc1ccccc1)C(=O)N2Cc1ccccc1 (relative stereo) , what is it?
Result: 106 to 109 °C

---

The entries below come with measured melting point values attached.

Worked cases, melting point given:
Problem: Return reported melting point; argument: "CCOC(=O)ON(C(N)=O)[C@H]1C[C@@H](c2ccc(F)cc2)C1"
Result: 124 to 126 °C

Problem: How about this molecule: "CN1CCC(CC(=O)N2c3ccccc3NC(=O)c3cscc32)CC1"
Result: 184 to 185 °C

Next:
Problem: So what's the measured melting point for this one? "CN(C)Cc1nnc2n1-c1ccc(Cl)cc1C(c1ccccc1)=[N+]([O-])C2"
Result: 217 to 219 °C

Problem: Now the molecule CC(C)(C)OC(=O)N1C(=O)O[C@@H](c2cccc(Cl)c2)[C@H]1Cc1ccc(CC(F)(F)C(F)(F)F)cc1 (racemic)
Result: 136 to 138 °C

Problem: Okay, and "CCOC(=O)c1[nH]c2ccc(C)cc2c(=O)c1C" ?
Result: 190 to 193 °C

Problem: Proceed to "CSc1nc(-c2ccncc2)n(-c2ccc(C)cc2)c(=O)c1C#N"
Result: > 250 °C

Problem: Now give it for "O=c1oc(-c2ccc(Sc3ccccc3)cc2)nc2sccc12" too.
Result: 203 to 204 °C

Problem: Likewise for "O=C(Nc1cccc(S(=O)(=O)N(CCO)CCO)c1)c1cnn2c(C(F)(F)F)cc(-c3ccc(C(F)(F)F)cc3)nc12" ?
Result: 209 °C

---

METRIC NAME: melting point

Recorded results for 10 compounds are shown here.
Problem: Any idea what its melting point is? The compound is "[N-]=[N+]=NS(=O)(=O)c1cccc(C(=O)Cl)c1"
Result: 41 °C

Problem: Also check "CCCCC(=Nc1sc(Cl)cc1C(=O)NCCC)OC"
Result: 110 to 112 °C

Problem: Next: "O=S(=O)(c1cc(Br)c(-c2ccc(Cl)cc2)[nH]1)C(F)(F)F"
Result: 155 to 159 °C

Problem: Field entry: "COc1ccc(Cc2nc(NCCO)c3c(C)c(C#N)sc3n2)cc1OC"
Result: 149 to 151 °C

Problem: Continue with "Nc1cc(C(=O)O)cc(SCc2ccsc2)c1Oc1ccccc1"
Result: 153 to 155 °C

Problem: Now try O=C(O)C1=C(c2ccccc2)C(c2ccccc2)OC1=O (stereo unspecified) .
Result: 116 to 117 °C

Problem: Also check "CCCn1nc(OCc2ccc3ccccc3n2)cc1COc1c(CC)cccc1CC(=O)O"
Result: 118 to 119 °C

Problem: And Cc1ccc(S(=O)(=O)OCC2Cc3cccc(C=Cc4ccccc4)c3O2)cc1 (stereo unspecified) ?
Result: 120 to 122 °C

Problem: Please do the same for CNc1ccc(Cl)c(-c2cc(=O)c3c(O)cc(O)c(C4CCN(C)C4CO)c3o2)c1 (stereo unspecified) as well.
Result: 208 to 210 °C

Problem: Record: "CS(=O)(=O)c1ccc(-n2nc(C(F)(F)F)cc2-c2ccc(-c3ccco3)cc2)cc1C(F)(F)F"
Result: 159 to 160 °C

New cases:
Problem: Item under review: "CCCCCc1c(C(C)C)nc(C(C)C)c(CO)c1-c1cccc(OC)c1" . Reported melting point?
Result: 65 to 66 °C

Problem: Same for "C#Cc1cnc2sc(SCCCCCCC)nn2c1=O"
Result: 140 to 142 °C

Problem: And what about the compound N#Cc1ccc(N2C(=O)C3C(O)CCCN3C2=O)c2ccccc12 (stereo unspecified) ?
Result: 243 °C

Problem: Item: "COc1ccc(-c2c(CC(=O)O)c(-c3ccccc3)nn2-c2ccccc2)cc1"
Result: 160 to 163 °C

Problem: For "COc1cc(C)c(CCCCCCCCCC(=O)CCCCCC(=O)O)c(O)c1OC" then?
Result: 55 to 57 °C
